All figures here come from the RNAGym collection of RNA variant scans (doi:10.7554/elife.90254).

# self-cleavage annotations
B1: OR4K15 (parent)
chain: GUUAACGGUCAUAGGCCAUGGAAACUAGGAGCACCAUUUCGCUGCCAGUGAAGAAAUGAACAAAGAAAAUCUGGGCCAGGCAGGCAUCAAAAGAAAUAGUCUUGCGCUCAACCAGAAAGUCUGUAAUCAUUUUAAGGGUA

Variants of: B1
Test Method Notes: self-cleavage, relative activity (ratio to wild type); higher = more cleavage; in vitro, sequencing; the parent is a self-cleaving ribozyme
Give a plain numeric answer without units written out.

>>> val("GUUAACGGUCAUAGGCCAUGGAAACUAGGAGCACCAUUUCGCUGCCAGUGAAGAAAUGAACAAAGAAAAUCUGGGCCGGGCAGGCAUCAAAAGAAAUAGUCUUGCGCUCAACCAGAAAGUCUGUAAUCAUCUUAAGGGUA [A78G U131C]")
0.07
>>> val("GUUAACGGUCAUAGGCCAUGGAAACUAAGAGCACCAUUUCGCUGCCAGUGAAGACAUGAACAAAGAAAAUCUGGGCCAGGCAGGCAUCAAAAGAAAUAGUCUUGCGCUCAACCAGAAAGUCUGUAAUCAUUUUAAGGGUA [G28A A55C]")
1.7
>>> val("GUUAACGGUCAUAGGCCAUGGAAACUAGGAGCACCAUUUCGCUGCCAGUGAAGAAAUGAACAAAGAAAAUCUGGGCCAGGCAGGUAUCAAGAGAAAUAGUCUUGCGCUCAACCAGAAAGUCUGUAAUCAUUUUAAGGGUA [C85U A91G]")
0.52
>>> val("GUUAACGGUCAUAGGCCAUGGAAACUAGGAGCACCAUUUCGCUGCCAGUGAAGAAAUGAACAAAGAGAAUCUGGGCCAGGCAGGCAUCAAAAGAAAUAGUCUUGCGCUCAACCAGAAAGCCUGUAAUCAUUUUAAGGGUA [A67G U120C]")
0.83
>>> val("GUUAUCGGUCAUAGGCCAUGGAAACUAGGAGCACCAUUUCGCUGCCAGUGAAGAAAUGAACAAAGAAAAUCUGGGCCAGGCAGGCGUCAAAAGAAAUAGUCUUGCGCUCAACCAGAAAGUCUGUAAUCAUUUUAAGGGUA [A5U A86G]")
0.92
>>> val("GUUAACGGUCAUAGGCCAUGGAAACUAGGAGCACCGUUUCGCUGCCAGUGAAGAAAUGAACAAAGAAAAUCCGGGCCAGGCAGGCAUCAAAAGAAAUAGUCUUGCGCUCAACCAGAAAGUCUGUAAUCAUUUUAAGGGUA [A36G U72C]")
0.14

Could you now consider this next variant?
Reported self-cleavage for GUUAACGGUCAUAGGCCAUGGAAACUAGGAGCACCAUUUCGCUGCCAGUGAAGAAAUGAGCAAAGAAAAUCUGGGCCAGGCAGGCAUCAAAAGAAAUAGUCUUGCGCUCAACCAGAAAGUCUGAAAUCAUUUUAAGGGUA [A60G U124A] was 0.75
